Measurement notes: qHTS assay to identify small molecule antagonists of the estrogen receptor beta (ER-beta) signaling pathway - cell viability counter screen (AID 1259382); also: nearly all actives have a fitted effect of over 55% in size; also: potency is read from the fitted curve at half-maximal effect
Experimental conditions: ER-beta-UAS-bla HEK293T viability, CellTiter-Glo luminescence, 16 h; series mostly up to 92.4 µM
Records with an inconclusive call do not appear. Activity calls are given as the source filed them. Calls follow the shape of the dose curve; as a rule, active = well fitted cell-killing curve with a large enough effect in the repeat runs; inconclusive = weak or mixed curves; inactive = flat fitted curve, though single readings scatter.

{"Smiles data": "CC1(C)O[C@@H]2C[C@H]3[C@@H]4CCC5=CC(=O)C=C[C@]5(C)[C@H]4[C@@H](O)C[C@]3(C)[C@]2(C(=O)CO)O1", "Potency": "inactive"}
{"Smiles data": "CC(=O)[C@H]1CC[C@H]2[C@@H]3C[C@H](C)C4=CC(=O)CC[C@]4(C)[C@H]3[C@@H](O)C[C@]12C", "Potency": "inactive"}
{"Smiles data": "CNCCCC1c2ccccc2C=Cc2ccccc21", "Potency": "18.8 µM (active)"}
{"Smiles data": "O=C(CCCCCCCCC#CI)Oc1ccccc1", "Potency": "inactive"}

====

Measurement notes: qHTS assay to identify aromatase inhibitors - cell viability counter screen (AID 743084);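 also: cells stimulated with testosterone during compound exposure; nearly all actives have a fitted effect of over 55% in size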
Experimental conditions: MCF-7 aro ERE viability, CellTiter-Fluor, 24 h; series mostly up to 70.3 µM
Inconclusive results are not listed. Active and inactive are the calls of the source. Calls come from the whole dose curve; as a rule, active = well fitted cell-killing curve with a large enough effect in the repeat runs; inconclusive = weak or mixed curves, or effect the other way; inactive = no such curve, though single readings can be large or run the other way.
Select the correct class. Options are true (1) = active, false (0) = inactive and nothing else.

{"Molecule": "Nc1nccs1", "Cat": "false (0)"}
{"Molecule": "CC(C)c1nnc2ccc(-c3ocnc3-c3cc(F)ccc3F)cn12", "Cat": "false (0)"}
{"Molecule": "COc1ccc(CCC(=O)c2c(O)cc(O[C@@H]3O[C@H](CO)[C@@H](O)[C@H](O)[C@H]3O[C@@H]3O[C@@H](C)[C@H](O)[C@@H](O)[C@H]3O)cc2O)cc1O", "Cat": "false (0)"}
{"Molecule": "COC(=O)CC(=O)C(C)(C)C", "Cat": "false (0)"}
{"Molecule": "Cc1cc(S(=O)(=O)O)ccc1N=Nc1c(O)ccc2ccccc12", "Cat": "true (1)"}
{"Molecule": "C[C@@H]1C[C@H]2[C@@H]3CCC4=CC(=O)C=C[C@]4(C)[C@@]3(F)[C@@H](O)C[C@]2(C)[C@H]1C(=O)CO", "Cat": "false (0)"}

Turning to the following molecule.
Task item: Tell me the assay call for "Cc1cc(O)c(C(C)C)cc1Cl" please.
Reply: false (0)

====

Measurement notes: A CellTox Green Cytotoxicity Assay to monitor cytotoxicity in HEK293 cells - 40 hour (AID 1224871); also: nearly all actives have a fitted effect of over 45% in size
Experimental conditions: CellTox Green fluorescence; series mostly up to 76.8 µM
Records with an inconclusive call do not appear. Active and inactive are the calls of the source. The call rests on the fitted dose curve; in most records, active means well fitted activation curve with a large enough effect in the repeat runs; inconclusive means weak or mixed curves; inactive means flat fitted curve, though single readings scatter.
Return exactly one item of Yes = active, No = inactive

{"Molecule": "Oc1cc(O)c(Cl)cc1Cl", "Cat": "No"}
{"Molecule": "C[C@@H]1C[C@H]2[C@@H]3CCC4=CC(=O)C=C[C@]4(C)[C@@]3(F)[C@@H](O)C[C@]2(C)[C@H]1C(=O)CO", "Cat": "No"}

Task item: What classification did "CCCCCCCC/C=C\CCCCCCCC(=O)OC(CO)CO" end up with in this test?
Reply: No

Task item: Fill in: this test's call for "COc1ccc([C@@H]2Sc3ccccc3NC(=O)[C@@H]2O)cc1" is ___
Reply: No

Task item: Hi team, can someone confirm the assay call for "CC(C)c1nnc2ccc(-c3ocnc3-c3cc(F)ccc3F)cn12" ?
Reply: No

Task item: Recorded test outcome, item "CCCCCCCCCCCC(=O)[O][Sn]([CH2]CCC)([CH2]CCC)[O]C(=O)CCCCCCCCCCC"
Reply: Yes

Task item: Which outcome did this test record for the molecule CC(CCc1ccc2c(c1)OCO2)NN (stereo not drawn) ?
Reply: No
